Target: Acyl-CoA : cholesterol acyltransferase (ACAT)
Experiment: Acyl-CoA : cholesterol acyltransferase (ACAT) inhibitory activity
Conditions: enzyme from mucosal microsome fraction of small intestine of rabbits fed 2% cholesterol diet; [14C]oleoyl-CoA and endogenous cholesterol, 37°C for 5 minutes
pIC50: −log10 of the molar value.
Observed Property: pIC50

Consider the following illustrative entries.
>>> print(df.to_string())
                                   compound  value_reported
0  Cc1ccc(-c2c(CN(Cc3ccccc3)C(=O)Nc3c(F)cc(F)cc3F)oc3ccc(Cl)cc23)cc1 [Example 6 - (6)]            8.08
1  CCCCCCCN(Cc1oc2ccc(CC)cc2c1-c1ccc(Cl)cc1)C(=O)Nc1c(F)cc(F)cc1F [Example 3 - (35)]            8.18

P = Cc1ccc(CN(Cc2oc3ccc(C)cc3c2-c2ccc(Cl)cc2)C(=O)Nc2c(F)cc(F)cc2F)cc1 [Example 6 - (7)]
Q = Cc1ccc2oc(CN(Cc3ccccc3)C(=O)Nc3c(F)cc(F)cc3F)c(-c3ccc(Cl)cc3)c2c1 [Example 6 - (2)]
Which record would sort first by descending pIC50, P or Q ? Give the chosen item's label as your response.
P
(P: 8.36, Q: 8.13)

* * *

Target: Acyl-CoA : cholesterol acyltransferase (ACAT)
Assay: Acyl-CoA : cholesterol acyltransferase (ACAT) inhibitory activity
Conditions: enzyme from mucosal microsome fraction of small intestine of rabbits fed 2% cholesterol diet; [14C]oleoyl-CoA and endogenous cholesterol, 37°C for 5 minutes
Observed Property: IC50 (nM)

                               input_smiles  value_reported
0  CCCCCCCN(Cc1cc2ccccc2o1)C(=O)Nc1c(F)cc(F)cc1F              73

A = O=C(Nc1c(F)cc(F)cc1F)N(Cc1oc2ccccc2c1-c1ccccc1)C1CCCCCC1
B = Cc1ccc2oc(CN(Cc3ccc(F)cc3)C(=O)Nc3c(F)cc(F)cc3F)c(-c3ccc(Cl)cc3)c2c1
Among A and B , whose measured IC50 is the smaller figure? Give the chosen item's label as your response.
B
